Data origin: patent US11198713B2

- Assayed target: full-length beta-catenin (Axin site) (Homo sapiens)
- Construct: 15 nM full-length beta-catenin, 20 nM FITC labeled peptide in buffer
- Sequence (P35222 whole entry): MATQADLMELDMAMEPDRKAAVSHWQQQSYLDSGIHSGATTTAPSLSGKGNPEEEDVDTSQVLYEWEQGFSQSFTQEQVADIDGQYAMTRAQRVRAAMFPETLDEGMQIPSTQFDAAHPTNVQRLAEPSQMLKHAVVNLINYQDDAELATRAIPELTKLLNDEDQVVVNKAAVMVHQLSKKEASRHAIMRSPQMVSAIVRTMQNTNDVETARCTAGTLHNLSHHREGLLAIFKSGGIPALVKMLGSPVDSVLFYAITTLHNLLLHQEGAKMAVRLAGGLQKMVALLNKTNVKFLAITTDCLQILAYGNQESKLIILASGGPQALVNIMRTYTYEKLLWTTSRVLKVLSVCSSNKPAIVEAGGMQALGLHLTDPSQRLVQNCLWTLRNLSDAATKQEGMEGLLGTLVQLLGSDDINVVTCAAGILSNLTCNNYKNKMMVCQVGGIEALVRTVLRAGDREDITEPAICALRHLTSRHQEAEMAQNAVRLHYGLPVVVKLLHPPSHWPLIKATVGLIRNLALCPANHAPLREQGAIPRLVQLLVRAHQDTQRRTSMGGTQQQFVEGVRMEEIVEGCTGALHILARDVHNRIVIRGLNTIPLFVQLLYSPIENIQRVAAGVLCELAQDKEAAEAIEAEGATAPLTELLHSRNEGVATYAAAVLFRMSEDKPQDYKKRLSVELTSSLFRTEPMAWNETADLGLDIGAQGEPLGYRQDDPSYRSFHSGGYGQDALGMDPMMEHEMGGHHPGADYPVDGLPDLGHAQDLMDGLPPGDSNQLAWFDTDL
- Procedure details: Competition fluorescence polarization assay (Axin site probe)
- Assay type: binding
- Condition label: competition fluorescence polarization, Table 2; read-out: in vitro FP EC50
Endpoint name: EC50

INSERT INTO assay_data (compound, result_value) VALUES
  ('CC[C@H](C)[C@@H]1NC(=O)C2(NC(=O)[C@H](CCC(N)=O)NC(=O)[C@@H]3CCCN3C(C)=O)CN(C2)C(=O)OCC=CCCC[C@@](C)(C(=O)N[C@@H](Cc2c[nH]cn2)C(=O)N[C@H](C(=O)N[C@@H](CCCNC(=N)N)C(=O)N[C@@H](CCCNC(=N)N)C(=O)N[C@H](C(=O)N[C@@H](Cc2c[nH]c3ccccc23)C(=O)N[C@@H](CCCNC(=N)N)C(N)=O)C(C)C)C(C)C)NC(=O)[C@H](CC(=O)O)NC(=O)[C@H](CC(C)C)NC1=O (single isomer, unassigned) [FP0724c, Ac-P-Q-MA-I-L-D-S5-H-V-R-R-V-W-R-NH2]', '500 to 5000 nM');
